# System under test: Muscarinic acetylcholine receptor M5 (Homo sapiens)
# Test name: human M5 muscarinic receptor antagonists, primary screen, CHO cells, Fluo-8 calcium fluorescence (AID 624040);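 further: 0% = acetylcholine EC80 with DMSO and 100% = DMSO without agonist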
# Details: CHO-hM5 cells, ACh EC80, at 3 µM, active compounds read high
Out of some 360,000 compounds screened, about 2,100 (0.58%) were called active. The entries come from a sample that favours actives as a whole.
Some molecules, each annotated with its measured inhibition.
Reported property: inhibition

>>> result("COc1cc(OC)c(OC)cc1CN1CCN(C(=O)c2cccc3ccccc23)CC1")
"4.24% (inactive)"
>>> result("O=C1CS(=O)CN1c1ccc(Oc2ccccc2)cc1 (stereo not given)")
"-0.11% (inactive)"
>>> result("COC(=O)[C@@]12C[C@@H](CC(=O)N3CCCCC3)C(=O)N(Cc3ccc4c(c3)OCO4)C1=CCC(C)(C)C2")
"-4.41% (inactive)"
>>> result("CC(=O)N1CCC(N(C(=O)Nc2ccc(Cl)cc2)C(C)C)CC1")
"12.4% (inactive)"
>>> result("COc1ccc(S(=O)(=O)N(C)CC(=O)NCCCN2CCOCC2)cc1Cl")
"8.37% (inactive)"

---

# System under test: Muscarinic acetylcholine receptor M5 (Homo sapiens)
# Test name: human M5 muscarinic receptor antagonists, primary screen, CHO cells, Fluo-8 calcium fluorescence (AID 624040);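 further: 0% = acetylcholine EC80 with DMSO and 100% = DMSO without agonist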
# Details: CHO-hM5 cells, ACh EC80, at 3 µM, active compounds read high
About 2,100 (0.58%) of roughly 360,000 compounds were called active. Only a selection was taken, and actives are over-represented in it overall.
Some molecules, each annotated with its measured inhibition.
Reported property: inhibition (%)

>>> numeric_readout("COc1ccc(NC(=O)c2sccc2SCC#N)cc1")
2.72
>>> numeric_readout("O=C1NC[C@H](Cc2ccc(O)cc2)N(C[C@@H]2CCCN2C[C@H](Cc2ccccc2)N2C[C@H](Cc3ccccc3)N(CC3CCCCC3)C(=O)C2=O)C1=O")
-4.87
>>> numeric_readout("Cc1ccc(S(=O)(=O)N2CCOCC2)cc1C(=O)OC1CCCCC1=O (stereo not given)")
5.95
>>> numeric_readout("CSCCC(NS(=O)(=O)c1ccc(C)cc1)C(=O)NCCc1c[nH]c2ccccc12 (stereo not given)")
2.39
>>> numeric_readout("COc1cccc(C(O)c2nc(-c3ccc(C)c(C)c3)cs2)c1 (stereo not given)")
2.71

---

Some compounds, each annotated with its measured inhibition.
# System under test: Muscarinic acetylcholine receptor M5 (Homo sapiens) (UniProt P08912)
# Sequence (P08912 whole entry, looked up): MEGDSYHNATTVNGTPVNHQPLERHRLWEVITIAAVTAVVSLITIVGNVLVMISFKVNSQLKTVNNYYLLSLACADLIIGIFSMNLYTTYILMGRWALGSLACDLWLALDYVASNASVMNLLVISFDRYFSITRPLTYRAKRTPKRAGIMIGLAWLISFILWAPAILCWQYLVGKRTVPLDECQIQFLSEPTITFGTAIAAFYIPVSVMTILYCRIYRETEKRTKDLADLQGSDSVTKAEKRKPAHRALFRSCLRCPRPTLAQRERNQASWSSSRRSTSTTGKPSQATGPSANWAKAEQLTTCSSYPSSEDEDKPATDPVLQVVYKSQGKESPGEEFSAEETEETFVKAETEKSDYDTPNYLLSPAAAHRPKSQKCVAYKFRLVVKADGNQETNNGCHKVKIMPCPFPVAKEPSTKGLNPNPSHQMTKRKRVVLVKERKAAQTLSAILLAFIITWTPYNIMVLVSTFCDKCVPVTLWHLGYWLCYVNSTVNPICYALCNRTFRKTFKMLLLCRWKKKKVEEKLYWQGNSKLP
# Test name: human M5 muscarinic receptor antagonists, primary screen, CHO cells, Fluo-8 calcium fluorescence (AID 624040);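 further: 0% = acetylcholine EC80 with DMSO and 100% = DMSO without agonist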
# Details: CHO-hM5 cells, ACh EC80, at 3 µM, active compounds read high
Out of some 360,000 compounds screened, about 2,100 (0.58%) were called active. The sample holds actives, similar compounds and a random draw of the others, so the mix is not that of the screen.
Reported property: inhibition (%)

>>> numeric_readout("O=C(Cc1ccc(S(=O)(=O)N2CCOCC2)s1)N1CCN(c2ccc(C(F)(F)F)cc2[N+](=O)[O-])CC1")
17.4
>>> numeric_readout("CCSc1nsc(NC(=O)Nc2cccc(C(C)=O)c2)n1")
22.5
>>> numeric_readout("O=C(c1ccc(N2CCCC2=O)cc1)N1CCN(c2ccc(C(F)(F)F)cc2[N+](=O)[O-])CC1")
29.3
>>> numeric_readout("C=CCSc1nsc(NC(=O)Nc2cccc(C(C)=O)c2)n1")
21.8
>>> numeric_readout("Cc1ccc(S(=O)(=O)N(C)CC(=O)NCC(c2ccc(F)cc2)N2CCOCC2)cc1 (stereo not given)")
4.43
>>> numeric_readout("CCOC(=O)c1nc(-c2ccc3c(c2)OCO3)[nH]c1C")
3.11
>>> numeric_readout("Cc1ccc(CNC(=O)CCNS(=O)(=O)c2ccc(Br)s2)cc1")
-7.85
>>> numeric_readout("C/C(CC(O)(/C=N/O)c1ccccc1)=N\\O (stereo not given)")
-4.45
>>> numeric_readout("COc1ccc(-c2cc3nc(C)c(CCC(=O)NC(C)CCc4ccco4)c(C)n3n2)c(OC)c1 (stereo not given)")
-13.5
>>> numeric_readout("CCN(CC)C(=O)C1CCC(C)(C(=O)O)C1(C)C (stereo not given)")
8.62

---

# System under test: Muscarinic acetylcholine receptor M5 (Homo sapiens) (UniProt P08912)
# Test name: human M5 muscarinic receptor antagonists, primary screen, CHO cells, Fluo-8 calcium fluorescence (AID 624040);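 further: 0% = acetylcholine EC80 with DMSO and 100% = DMSO without agonist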
# Details: CHO-hM5 cells, ACh EC80, at 3 µM, active compounds read high
Out of some 360,000 compounds screened, about 2,100 (0.58%) were called active. The list comes from a sample in which actives are over-represented; it also holds close analogues and randomly drawn compounds.
Reported property: inhibition (%)

>>> numeric_readout("CCc1ccc(-c2cc(C)no2)cc1S(=O)(=O)NCCc1ccc(S(N)(=O)=O)cc1")
-7.03
>>> numeric_readout("O=C(Nc1cccc(Cl)c1)Nc1ccccc1NS(=O)(=O)c1cccs1")
30.1
>>> numeric_readout("C=CCCN(Cc1ccccc1)S(=O)(=O)c1ccccc1Br")
13.3
>>> numeric_readout("CCN(CC)CCCC(C)n1c2nc(=O)[nH]c(=O)c-2nc2cc(Cl)ccc21 (stereo unspecified)")
41.2
>>> numeric_readout("Cc1cn([C@H]2C[C@H](O)[C@@H](/C=C/C(=O)NCCCc3ccccc3)O2)c(=O)[nH]c1=O")
6.27
>>> numeric_readout("Cc1ccc(C(=O)N/C(=C/c2ccco2)C(=O)NCCc2c[nH]c3ccccc23)cc1C")
0.84
>>> numeric_readout("CCOc1ccc(-n2c(SCC(=O)NC3CCS(=O)(=O)C3)nnc2-c2cccnc2)cc1 (stereo unspecified)")
0.02
>>> numeric_readout("N#Cc1ccc(OCCN2C(=O)NC3(CCSC3)C2=O)cc1 (stereo unspecified)")
-5.81
>>> numeric_readout("Cc1noc(C)c1CSCC(=O)Nc1nc2ccc(Oc3ccccc3)cc2s1")
-2.14
>>> numeric_readout("CCc1ccc(N(C(=O)c2csnn2)C(C(=O)NC2CCCCC2)c2cccnc2)cc1 (stereo unspecified)")
-0.48
>>> numeric_readout("O=[N+]([O-])c1c(NCCO)cc(Sc2nc3ccccc3s2)c2nonc12")
29.2
>>> numeric_readout("N#CCc1ccc(NC(=O)c2ccccc2C(=O)Nc2ccc(CC#N)cc2)cc1")
2.31
>>> numeric_readout("COc1cc(C(=O)N2CCOC23CCN(Cc2ccccc2)CC3)cc(OC)c1OC")
4.88
>>> numeric_readout("C=CCNC(=O)c1ccccc1SCc1c(C)noc1C")
-3.18
>>> numeric_readout("CCCCCc1c(Cc2ccccc2)ncn1CCc1ccccc1OC")
30.2
>>> numeric_readout("CCOc1ccc(CCN2C(=S)N([C@@H](CC(C)C)CN3CCC[C@@H]3CN3C(=S)NC[C@@H]3Cc3ccc(O)cc3)C[C@@H]2Cc2ccc(O)cc2)cc1")
0.29
>>> numeric_readout("CC1(C)C2CC=C(/C=N/NC(=O)C3CC3)C1C2 (stereo unspecified)")
-4.33
>>> numeric_readout("CCc1ccc[n+](-c2nc([O-])sc2C=O)c1")
9.19
>>> numeric_readout("N#C/C(=C/c1ccc(N2CCCCC2)o1)C(=O)NCCc1c[nH]c2ccccc12")
31.6
>>> numeric_readout("CCCCCc1c(-c2ccc(OC)c(OC)c2)ncn1CCc1ccccc1OC")
15.1
>>> numeric_readout("O=S(=O)(NCCc1ccc(Cl)cc1)c1cccs1")
2.77

---

# System under test: Muscarinic acetylcholine receptor M5 (Homo sapiens)
# Test name: human M5 muscarinic receptor antagonists, primary screen, CHO cells, Fluo-8 calcium fluorescence (AID 624040);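 further: 0% = acetylcholine EC80 with DMSO and 100% = DMSO without agonist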
# Details: CHO-hM5 cells, ACh EC80, at 3 µM, active compounds read high
Screen size: about 360,000 compounds; about 2,100 (0.58%) were called active. The sample holds actives, similar compounds and a random draw of the others, so the mix is not that of the screen.
Some molecules, each annotated with its measured inhibition.
Reported property: inhibition (%)

>>> numeric_readout("CC(C)(C)c1cnnn1-c1ccc([N+](=O)[O-])cc1")
-0.77
>>> numeric_readout("CN(C)CCOC1c2ccccc2-c2ccccc21")
9.21
>>> numeric_readout("CC(C)c1ccc(/C=C2\\NC(=O)NC2=O)cc1")
-18.6
>>> numeric_readout("Nc1nnc(SCC(=O)NC2CCCc3ccccc32)s1 (stereo unspecified)")
2.63
>>> numeric_readout("CCN1C(=O)CS/C1=N\\c1nccs1")
-0.1
>>> numeric_readout("Cc1c(C)c(C)c(S(=O)(=O)N2CCC3(CC2)OCCO3)c(C)c1C")
5.79
>>> numeric_readout("CCCc1cc(=O)[nH]c2nnc(SCC(=O)Nc3nnc(SCC)s3)n12")
6.93
>>> numeric_readout("CC(C)c1ccc(C=NNc2ccc([N+](=O)[O-])cn2)cc1")
27.5
>>> numeric_readout("COc1ccc(Cn2cc(CN3CCS(=O)(=O)N(Cc4ccc(-c5cccc(Cl)c5)cc4)C(C)C3=O)nn2)cc1 (stereo unspecified)")
-2.91
>>> numeric_readout("Cc1ccccc1C(OCC(O)CN1CCCCC1CCO)c1ccccc1 (stereo unspecified)")
1.17
>>> numeric_readout("CC(C)c1ccc(NC(=O)CCN2C(=O)c3ccc([N+](=O)[O-])cc3C2=O)cc1")
-6.62
>>> numeric_readout("CCOC(=O)C(CO)NC(=O)C1(NC(C)=O)CCCC1 (stereo unspecified)")
5.55
>>> numeric_readout("O=C(c1ccc(Cl)nc1)N1CCN(S(=O)(=O)c2ccc3c(c2)OCCO3)CC1")
8.5
>>> numeric_readout("CN1CCC[C@@H]1CCO[C@](C)(c1ccccc1)c1ccc(Cl)cc1")
98.5
>>> numeric_readout("Cc1cccc(C)c1NC(=O)C(c1ccc(C(F)(F)F)cc1)n1c(=O)c(-c2ccco2)nc2ccccc21 (stereo unspecified)")
-5.75
>>> numeric_readout("CC(C)(C)S(=O)(=O)N1Cc2cc(CO)cc(CCO)c2[C@H]1CCO")
-3.33
>>> numeric_readout("CC(=O)N1CCN(Cc2cc(=O)oc3cc(C)ccc23)CC1")
-1.45
>>> numeric_readout("O=C(CCCN=C1NS(=O)(=O)c2ccccc21)OCC(=O)c1ccc(F)c(F)c1")
7.17
>>> numeric_readout("O=C(c1c(F)cccc1F)N1CCN(S(=O)(=O)c2ccc3c(c2)OCCO3)CC1")
15.2
>>> numeric_readout("COCCn1c(SCC(=O)Nc2cc(OC)ccc2OC)nc2c(c1=O)SC(C)C2 (stereo unspecified)")
3.68
>>> numeric_readout("O=C(CSc1nc(-c2ccccc2)cs1)Nc1cccc([N+](=O)[O-])c1")
14.8
